test: Hydrophobicity of compound; format: physicochemical
Output label 1 for records whose Activity is lower than 0.5, label 0 for records at or above 0.5.

{"Substance": "H-YTVSATYWKKIWKPGIKKWIK-OH", "Class": "label 0"}
{"Substance": "H-HSDANAWWKKIWKPGIKKWIK-OH", "Class": "label 1"}
{"Substance": "H-WTSNDTAWKKIWKPGIKKWIK-OH", "Class": "label 1"}
{"Substance": "H-EMPGYNSWKKIWKPGIKKWIK-OH", "Class": "label 1"}
{"Substance": "H-FASSHPSWKKIWKPGIKKWIK-OH", "Class": "label 1"}

* * *

test system: Pseudomonas aeruginosa; experiment: Antibacterial activity against Pseudomonas aeruginosa PAO1 incubated for 12 to 18 hrs by microbroth dilution method; type: functional; conditions: time 12-18 hrs
Parameter Measured: log10 of MIC (log10 of the value in µM)

{"Substance": "H-EMPGYNSWKKIWKPGIKKWIK-OH", "Parameter Measured": "log10 of MIC", "Experimental Result": 1.51}
{"Substance": "H-HSDANAWWKKIWKPGIKKWIK-OH", "Parameter Measured": "log10 of MIC", "Experimental Result": 1.20}
{"Substance": "H-FASSHPSWKKIWKPGIKKWIK-OH", "Parameter Measured": "log10 of MIC", "Experimental Result": 1.20}
{"Substance": "H-WKKIWKPGIKKWIK-OH", "Parameter Measured": "log10 of MIC", "Experimental Result": 1.20}
{"Substance": "H-WTSNDTAWKKIWKPGIKKWIK-OH", "Parameter Measured": "log10 of MIC", "Experimental Result": 1.81}
{"Substance": "H-RLTTMVHWKKIWKPGIKKWIK-OH", "Parameter Measured": "log10 of MIC", "Experimental Result": 0.60}
{"Substance": "H-CFASAPRWKKIWKPGIKKWIK-OH", "Parameter Measured": "log10 of MIC", "Experimental Result": 0.90}
{"Substance": "H-YTVSATYWKKIWKPGIKKWIK-OH", "Parameter Measured": "log10 of MIC", "Experimental Result": 0.90}

All figures here come from ChEMBL document CHEMBL6103615.
